Biological target: truncated human 11β-HSD-1 enzyme (24-287AA) (Homo sapiens)
Construct: truncated human 11β-HSD-1 enzyme (24-287AA); made in house; host or cells: E. coli (lysate)
Sequence (P28845 24-287): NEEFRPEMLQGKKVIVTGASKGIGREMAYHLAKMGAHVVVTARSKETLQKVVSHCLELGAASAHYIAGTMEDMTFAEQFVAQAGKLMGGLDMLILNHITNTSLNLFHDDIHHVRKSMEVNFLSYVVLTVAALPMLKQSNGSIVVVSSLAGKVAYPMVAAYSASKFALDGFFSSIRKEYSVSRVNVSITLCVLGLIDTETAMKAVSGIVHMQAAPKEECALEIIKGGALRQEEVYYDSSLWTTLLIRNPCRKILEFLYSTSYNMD
Assay: human 11β-HSD-1 enzymatic Scintillation Proximity Assay (SPA)
Assay type: biochemical
Protocol: The ability of test compounds to inhibit human 11-βHSD-1 enzymatic activity in vitro was evaluated in a Scintillation Proximity Assay (SPA). […] The reaction plate was shaken at room temperature and the radioactivity bound to SPA beads was then measured on a β-scintillation counter. […] After shaking for 30 minutes, plates were read on a liquid scintillation counter Topcount. Percent inhibition was calculated based on the background and the maximal signal. […]

>  <compound>
CC(C(=O)NC1C2CC3CC(C2)CC1C3)N1CCC(O)CC1 (stereo not shown)

>  <IC50>
34 nM

$$$$
